Please provide measured fraction ligated for the entries that follow.
B1: F1*; the commonest letter at each place (parent)
chain: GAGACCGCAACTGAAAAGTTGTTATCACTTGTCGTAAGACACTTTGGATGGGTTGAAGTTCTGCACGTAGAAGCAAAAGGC

# Variants of: B1
# experimentSummary: fraction ligated after 30 min (ligated reads / total reads); higher = more ligase activity
# conditions: with F1*sub RNA substrate (template-directed ligation), 42 °C
Answers are plain numbers.

Provide fraction ligated values for the following items, in order.
1. GAGACCGCAACTGAAAAGTTGTTATCACTGGGCGTAAGACACTTTGGATGGGTTGAAGTTCTGCACGTAGAAGCAAAAGGC [T30G T32G]
2. GAGACCGCAACTGAAAAGTTGTTATCACTTGTCGTTAGACACATTGGATGGGTTGAAGTTCTGCACGTAGAAGCAAAAGGC [A36T T43A]
3. GAGACCGCAACTGAAAAGTTGTTATCACTTGTCCTAAGACACTTTAGATGGGTTGAAGTTCTGCACGTAGAAGCAAAAGGC [G34C G46A]
4. GAGACCGCAACTGAAAAGTTGTTATCACCTGTCGTAAGACGCTTTGGATGGGTTGAAGTTCTGCACGTAGAAGCAAAAGGC [T29C A41G]
5. GAGACCGCAACTGAAAAGTTGTTATCACTTGTCGTAAGACACATTGGATGGGTTGAGGTTCTGCACGTAGAAGCAAAAGGC [T43A A57G]
6. GAGACCGCAACTGAAAAGTTGTTATCACTTGTCGCTAGACACTTTGGATGGGTTGAAGTTCTGCACGTAGAAGCAAAAGGC [T35C A36T]
7. GAGACCGCAACTGAAAAGTTGTTATCACTTGTCGTACGACACTTTGGTTGGGTTGAAGTTCTGCACGTAGAAGCAAAAGGC [A37C A48T]

1: 0.865; 2: 0.841; 3: 0.789; 4: 0.766; 5: 0.793; 6: 0.839; 7: 0.775

Hi! Can you tell me fraction ligated for each of these variants?
1. GAGACCGCAACTGAAAAGTTGTTATCACTTGTCGTAAAACGCTTTGGATGGGTTGAAGTTCTGCACGTAGAAGCAAAAGGC [G38A A41G]
2. GAGACCGCAACTGAAAAGTTGTTATCACTTGTGGTAATACACTTTGGATGGGTTGAAGTTCTGCACGTAGAAGCAAAAGGC [C33G G38T]
3. GAGACCGCAACTGAAAAGTTGTCATTACTTGTCGTAAGACACTTTGGATGGGTTGAAGTTCTGCACGTAGAAGCAAAAGGC [T23C C26T]
4. GAGACCGCAACTGAAAAGTTGTTATCACTTGTCGTAAGACACTTTTGAGGGGTTGAAGTTCTGCACGTAGAAGCAAAAGGC [G46T T49G]

[0.765, 0.837, 0.779, 0.277]

Hi! Can you tell me fraction ligated for each of these variants?
1. GAGACCGCAACTGAAAAGTTGTAATCACTTGTCGTAAGACACTTTGGATAGGTTGAAGTTCTGCACGTAGAAGCAAAAGGC [T23A G50A]
2. GAGACCGCAACTGAAAAGTTGTTATCACTTGTCGTAAGACACTTAGGATGGGTTAAAGTTCTGCACGTAGAAGCAAAAGGC [T45A G55A]
3. GAGACCGCAACTGAAAAGTTGTTATCACTTGTCGTAAGACACTTTTGATGGGTTGGAGTTCTGCACGTAGAAGCAAAAGGC [G46T A56G]

1: 0.477; 2: 0.274; 3: 0.187

Provide each entry's fraction ligated from the list below.
1. GAGACCGCAACTGAAAAGTTGTTATCACTTGTCGTAATACACTTTGGATGGGTTGAGGTTCTGCACGTAGAAGCAAAAGGC [G38T A57G]
2. GAGACCGCAACTGAAAAGTTGTTAGCACTTGTCGTAAGACACTTTGGATGGGTTGACGTTCTGCACGTAGAAGCAAAAGGC [T25G A57C]
3. GAGACCGCAACTGAAAAGTTGTTATCACTTGTCGGAAGCCACTTTGGATGGGTTGAAGTTCTGCACGTAGAAGCAAAAGGC [T35G A39C]
4. GAGACCGCAACTGAAAAGTTGTTATCACTTGTCGTAAGACACTTTGAATGGGTTGCAGTTCTGCACGTAGAAGCAAAAGGC [G47A A56C]
5. GAGACCGCAACTGAAAAGTTGTTATCACTTGTGGTAAGACACTTTGTATGGGTTGAAGTTCTGCACGTAGAAGCAAAAGGC [C33G G47T]
6. GAGACCGCAACTGAAAAGTTGTTATCACTTTTCGTAAGACACTTAGGATGGGTTGAAGTTCTGCACGTAGAAGCAAAAGGC [G31T T45A]

1: 0.862; 2: 0.556; 3: 0.816; 4: 0.125; 5: 0.409; 6: 0.387
